Biological target: Proteasome subunit beta type-7 (Homo sapiens)
Sequence (Q99436 whole entry): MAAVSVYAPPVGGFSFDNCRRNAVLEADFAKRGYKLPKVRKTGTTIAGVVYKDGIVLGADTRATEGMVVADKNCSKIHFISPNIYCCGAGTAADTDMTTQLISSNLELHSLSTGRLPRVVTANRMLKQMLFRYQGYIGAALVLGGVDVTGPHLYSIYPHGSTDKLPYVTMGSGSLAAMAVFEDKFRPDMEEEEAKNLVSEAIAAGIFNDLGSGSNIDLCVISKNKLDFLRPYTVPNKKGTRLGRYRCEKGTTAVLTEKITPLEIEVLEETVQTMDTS
Assay: Inhibition of trypsin-like activity of proteasome beta7 subunit (unknown origin)
pIC50: −log10 of the molar value.
readout_name: pIC50

>  <compound_smiles>
CC(C)C[C@H](NC(=O)[C@H](Cc1ccccc1)NC(=O)[C@H](Cc1ccc2ccccc2c1)NC(=O)c1cnccn1)B1O[C@@H]2[C@H]3CC[C@H](C3(C)C)[C@]2(C)O1

>  <pIC50>
< 7.70

$$$$
>  <compound_smiles>
CC(C)C[C@H](NC(=O)[C@H](Cc1ccc2ccccc2c1)NC(=O)[C@H](CC(C)C)NC(=O)c1cnccn1)B1O[C@@H]2[C@H]3CC[C@H](C3(C)C)[C@]2(C)O1

>  <pIC50>
< 7.70

$$$$
>  <compound_smiles>
CC(C)C[C@H](NC(=O)[C@H](Cc1ccc2ccccc2c1)NC(=O)[C@H](CC(C)C)NC(=O)c1cnccn1)B(O)O

>  <pIC50>
< 7.70

$$$$
>  <compound_smiles>
CC(C)C[C@H](NC(=O)[C@H](Cc1ccc(O)cc1)NC(=O)[C@H](Cc1ccccc1)NC(=O)c1cnccn1)B(O)O

>  <pIC50>
< 7.70

$$$$
>  <compound_smiles>
CC(C)C[C@H](NC(=O)[C@H](Cc1ccccc1)NC(=O)[C@H](Cc1ccccc1)NC(=O)c1cnccn1)B(O)O

>  <pIC50>
< 7.70

$$$$

Give pIC50 for each listed item.
1. CC(C)C[C@H](NC(=O)[C@H](Cc1ccccc1)NC(=O)[C@H](Cc1ccccc1)NC(=O)c1cnccn1)B1O[C@@H]2[C@H]3CC[C@H](C3(C)C)[C@]2(C)O1
2. CC(C)C[C@H](NC(=O)[C@H](Cc1ccc(O)cc1)NC(=O)[C@H](Cc1ccccc1)NC(=O)c1cnccn1)B1O[C@@H]2[C@H]3CC[C@H](C3(C)C)[C@]2(C)O1
3. CC(C)C[C@H](NC(=O)[C@H](Cc1ccccc1)NC(=O)[C@H](Cc1ccc2ccccc2c1)NC(=O)c1cnccn1)B(O)O

< 7.70
< 7.70
< 7.70

* * *

Biological target: Tubulin
Assay: Inhibition of tubulin polymerization (unknown origin)
Type: protein-complex assay, Homo sapiens
Record form. Attribute: IC50. Fill in for each entry.
Give bare numbers, in µM.

The following compounds have reported results that may help.
>  <compound_smiles>
COc1ccc(/C=C/c2cc(OC)c(OC)c(OC)c2)cc1B(O)O

>  <assay_result>
7.8

$$$$
>  <compound_smiles>
COc1cc(/C=C/C(=O)c2cc(OC)c(OC)c(OC)c2)ccc1B(O)O

>  <assay_result>
31

$$$$
>  <compound_smiles>
COc1cc(/C=C/C(=O)c2cc(OC)c(OC)c(OC)c2)ccc1O

>  <assay_result>
2.6

$$$$

Here is another compound to look at.
Supply measured IC50 of `COc1ccc(/C=C\c2cc(OC)c(OC)c(OC)c2)cc1B(O)O` in your reply. 1.5

* * *

Assign IC50 to each entry below.
Assay: Cytotoxicity against human 1-87 cells
Format: functional, cell-based
One number for each entry, in nM.

Worked cases, answers included:
>  <compound_smiles>
COc1cc(/C=C\c2ccc(B(O)O)cc2)cc(OC)c1OC

>  <assay_result>
3200

$$$$
>  <compound_smiles>
COc1cc(/C=C\c2cccc(B(O)O)c2)cc(OC)c1OC

>  <assay_result>
2100

$$$$
>  <compound_smiles>
COc1ccc(/C=C\c2cc(OC)c(OC)c(OC)c2)cc1B(O)O

>  <assay_result>
13

$$$$
>  <compound_smiles>
COc1cc(/C=C\c2ccc(OC)c(B(O)O)c2)cc(OC)c1

>  <assay_result>
28

$$$$
>  <compound_smiles>
COc1cc(/C=C\c2ccc(B(O)O)cc2)cc(OC)c1

>  <assay_result>
9100

$$$$
>  <compound_smiles>
COc1ccc(/C=C\c2cc(OC)c(OC)c(OC)c2)cc1C(=O)O

>  <assay_result>
110000

$$$$

Would you mind listing IC50 for each of the following molecules?
1. COc1ccc(/C=C\c2cc(OC)c(OC)c(OC)c2)cc1O
2. COc1cc(/C=C\c2cccc(B(O)O)c2)cc(OC)c1

1. 8.5
2. 2000

* * *

Record form. Attribute: pKi. Fill in for each entry.
Experiment: Inhibition of alpha-chymotrypsin (unknown origin)
Design: species or system Homo sapiens
One number for each entry, as −log10 of the molar value.

>  <compound>
OCc1ccccc1 [BENZYL ALCOHOL]

>  <pKi>
2.00

$$$$

For the next question, use this compound.
For the compound OB(O)c1ccccc1 [PHENYLBORONIC ACID] , give its reported pKi. 3.71

* * *

Assay: Inhibition of AmpC beta-lactamase N289A mutant (unknown origin)
Kindly supply the reported pKi values for the records listed here.
Give bare numbers, as −log10 of the molar value.

For each entry beneath this line, provide reported pKi.
1. O=C(Cc1cccs1)N[C@H](B(O)O)c1cccc(C(=O)O)c1
2. O=C(O)/C=C/c1cccc([C@H](NC(=O)Cc2cccs2)B(O)O)c1

1: 7.77; 2: 8.55

* * *

Assay: Cytotoxicity against human MCF12A cells
Format: cell-based
Conditions: MCF-12A
readout_name: pIC50
One number for each entry, as −log10 of the molar value.

Answer with the recorded pIC50 for the compound listed here: `O=C(/C=C/c1ccc(I)cc1)c1ccc(OCB(O)O)cc1` 4.00

* * *

Tested on: MCF7
Assay: Cytotoxicity against human MCF7 cells
Assay type: functional, cell-based
readout_name: IC50 (nM)
Numbers only, in nM.

Below, 4 compounds whose answers are already recorded.
>  <compound_smiles>
COc1ccc(/C=C/c2cc(OC)c(OC)c(OC)c2)cc1B(O)O

>  <IC50, nM>
470

$$$$
>  <compound_smiles>
COc1cc(/C=C/C(=O)c2cc(OC)c(OC)c(OC)c2)ccc1B(O)O

>  <IC50, nM>
900

$$$$
>  <compound_smiles>
COc1cc(/C=C/C(=O)c2cc(OC)c(OC)c(OC)c2)ccc1O

>  <IC50, nM>
110

$$$$
>  <compound_smiles>
COc1ccc(/C=C\c2cc(OC)c(OC)c(OC)c2)cc1B(O)O

>  <IC50, nM>
17

$$$$

Fill in: IC50 on MCF7, entry `COc1ccc(/C=C\c2cc(OC)c(OC)c(OC)c2)cc1O` 32

* * *

Target: Tubulin
Assay: Inhibition of tubulin polymerization (unknown origin) after 30 mins
Assay type: protein-complex assay, Homo sapiens
readout_name: IC50 (µM)
Answers are plain numbers, in µM.

Before answering, review these 2 worked examples.
>  <compound_smiles>
COc1cc(/C=C\c2ccc(B(O)O)cc2)cc(OC)c1

>  <measured_on>
Tubulin

>  <display_unit>
µM

>  <IC50>
79

$$$$
>  <compound_smiles>
COc1ccc(/C=C\c2cc(OC)c(OC)c(OC)c2)cc1B(O)O

>  <measured_on>
Tubulin

>  <display_unit>
µM

>  <IC50>
22

$$$$

Field: next molecule
Identify IC50 associated with the molecule `COc1cc(/C=C\c2ccc(OC)c(B(O)O)c2)cc(OC)c1` 21

* * *

Assay: Inhibition of TEM-30 (unknown origin)
readout_name: pKi
One number for each entry, as −log10 of the molar value.

>  <compound_smiles>
O=C(Cc1cccs1)N[C@H](B(O)O)c1cccc(C(=O)O)c1

>  <pKi>
5.11

$$$$

// below: pKi requested for another compound
Give the measured pKi for `O=C(O)/C=C/c1cccc([C@H](NC(=O)Cc2cccs2)B(O)O)c1` 5.42

* * *

Target: Proteasome Macropain subunit MB1 (Homo sapiens)
Sequence (P28074 whole entry): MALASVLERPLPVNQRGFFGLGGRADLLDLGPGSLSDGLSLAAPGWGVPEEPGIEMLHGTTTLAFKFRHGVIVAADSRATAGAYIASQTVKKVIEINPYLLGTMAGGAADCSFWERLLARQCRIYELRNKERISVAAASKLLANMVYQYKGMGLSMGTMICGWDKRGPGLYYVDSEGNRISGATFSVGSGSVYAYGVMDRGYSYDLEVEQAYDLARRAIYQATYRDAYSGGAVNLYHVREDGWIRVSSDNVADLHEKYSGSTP
Test: Inhibition of chymotrypsin-like activity of proteasome beta5 subunit (unknown origin)
Record form. Attribute: pIC50. Fill in for each entry.
Numbers only, as −log10 of the molar value.

Worked examples, 2 compounds total:
>  <compound_smiles>
CC(C)C[C@H](NC(=O)[C@H](Cc1ccccc1)NC(=O)[C@H](Cc1ccc2ccccc2c1)NC(=O)c1cnccn1)B1O[C@@H]2[C@H]3CC[C@H](C3(C)C)[C@]2(C)O1

>  <readout_name>
pIC50

>  <assay_result>
9.66

$$$$
>  <compound_smiles>
CC(C)C[C@H](NC(=O)[C@H](Cc1ccc2ccccc2c1)NC(=O)[C@H](CC(C)C)NC(=O)c1cnccn1)B1O[C@@H]2[C@H]3CC[C@H](C3(C)C)[C@]2(C)O1

>  <readout_name>
pIC50

>  <assay_result>
9.42

$$$$

Working through the 2 compounds below one at a time, give pIC50 for each.
1. CC(C)C[C@H](NC(=O)[C@H](Cc1ccccc1)NC(=O)[C@H](Cc1ccccc1)NC(=O)c1cnccn1)B(O)O
2. CC(C)C[C@H](NC(=O)[C@H](Cc1ccc(O)cc1)NC(=O)[C@H](Cc1ccccc1)NC(=O)c1cnccn1)B(O)O

1. 9.26
2. 9.41

Give one value of pIC50 per listed compound.
1. CC(C)C[C@H](NC(=O)[C@H](Cc1ccc(O)cc1)NC(=O)[C@H](Cc1ccccc1)NC(=O)c1cnccn1)B1O[C@@H]2[C@H]3CC[C@H](C3(C)C)[C@]2(C)O1
2. CC(C)C[C@H](NC(=O)[C@H](Cc1ccccc1)NC(=O)[C@H](Cc1ccccc1)NC(=O)c1cnccn1)B1O[C@@H]2[C@H]3CC[C@H](C3(C)C)[C@]2(C)O1
3. CC(C)C[C@H](NC(=O)[C@H](Cc1ccccc1)NC(=O)[C@H](Cc1ccc2ccccc2c1)NC(=O)c1cnccn1)B(O)O
4. CC(C)C[C@H](NC(=O)[C@H](Cc1ccc2ccccc2c1)NC(=O)[C@H](CC(C)C)NC(=O)c1cnccn1)B(O)O

9.47
9.40
9.38
10.10

Reference source for all entries: ChEMBL document CHEMBL3390847
